- Test system: human E3 ligase component cereblon (CRBN) (Homo sapiens (Human))
- Sequence (Q96SW2 whole entry): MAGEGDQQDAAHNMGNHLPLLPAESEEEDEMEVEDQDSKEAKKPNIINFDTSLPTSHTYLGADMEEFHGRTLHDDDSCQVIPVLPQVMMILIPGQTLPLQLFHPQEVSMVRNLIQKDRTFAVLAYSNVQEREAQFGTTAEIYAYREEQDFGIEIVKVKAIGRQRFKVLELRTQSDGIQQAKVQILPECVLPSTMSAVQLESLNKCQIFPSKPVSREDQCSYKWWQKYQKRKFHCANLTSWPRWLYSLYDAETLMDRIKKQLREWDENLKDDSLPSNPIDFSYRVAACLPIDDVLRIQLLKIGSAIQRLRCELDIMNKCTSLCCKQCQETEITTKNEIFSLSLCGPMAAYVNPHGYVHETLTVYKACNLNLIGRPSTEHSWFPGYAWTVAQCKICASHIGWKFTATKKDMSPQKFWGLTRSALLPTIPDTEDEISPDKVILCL
- Sequence (Q16531 whole entry partner): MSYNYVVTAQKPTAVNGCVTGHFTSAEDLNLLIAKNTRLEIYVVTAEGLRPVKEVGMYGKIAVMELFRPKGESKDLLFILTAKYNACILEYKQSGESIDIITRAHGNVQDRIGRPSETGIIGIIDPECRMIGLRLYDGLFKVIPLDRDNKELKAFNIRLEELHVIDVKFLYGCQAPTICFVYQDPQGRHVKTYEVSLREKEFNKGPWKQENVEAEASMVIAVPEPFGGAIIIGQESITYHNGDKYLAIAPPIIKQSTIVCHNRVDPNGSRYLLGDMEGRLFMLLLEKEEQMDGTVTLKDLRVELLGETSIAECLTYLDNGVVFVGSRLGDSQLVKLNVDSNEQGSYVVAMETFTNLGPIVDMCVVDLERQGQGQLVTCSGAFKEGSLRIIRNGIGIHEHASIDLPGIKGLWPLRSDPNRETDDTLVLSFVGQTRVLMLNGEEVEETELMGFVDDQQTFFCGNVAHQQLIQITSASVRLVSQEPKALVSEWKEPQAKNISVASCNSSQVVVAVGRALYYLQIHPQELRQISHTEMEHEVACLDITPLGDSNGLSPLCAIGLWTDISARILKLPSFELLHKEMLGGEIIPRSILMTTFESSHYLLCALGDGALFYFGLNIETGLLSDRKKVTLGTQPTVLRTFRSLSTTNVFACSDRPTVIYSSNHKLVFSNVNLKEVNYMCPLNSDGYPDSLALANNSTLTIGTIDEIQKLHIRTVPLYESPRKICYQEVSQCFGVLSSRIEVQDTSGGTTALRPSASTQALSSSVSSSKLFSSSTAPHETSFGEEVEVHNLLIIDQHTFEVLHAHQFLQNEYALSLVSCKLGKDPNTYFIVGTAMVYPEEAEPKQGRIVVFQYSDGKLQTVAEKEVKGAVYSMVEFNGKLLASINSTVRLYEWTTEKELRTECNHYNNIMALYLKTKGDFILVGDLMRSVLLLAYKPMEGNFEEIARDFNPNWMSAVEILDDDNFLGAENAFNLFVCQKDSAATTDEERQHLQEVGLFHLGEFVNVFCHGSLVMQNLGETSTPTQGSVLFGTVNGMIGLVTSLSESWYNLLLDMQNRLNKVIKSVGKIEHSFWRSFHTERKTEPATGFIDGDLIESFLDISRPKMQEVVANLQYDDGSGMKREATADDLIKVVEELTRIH
- Test description: Cereblon (CRBN) target engagement, NanoBRET TE Intracellular E3 Ligase Assay in transfected HEK-293T cells
- Experimental parameters: Table 3, 2 hours at 37° C., read-out: CRBN Binding EC50
Endpoint: pEC50
Units for pEC50: none; it is -log10 of a concentration expressed in mol/L.

Req: Determine its reported pEC50: O=C1CCC(N2Cc3cc(O[C@H]4CCC[C@@H]4N4CC(C5CC5)C4)ccc3C2=O)C(=O)N1 (some centres unmarked) [Compound 22]
Resp: 7.66

Req: Determine its reported pEC50: O=C1CCC(N2Cc3c(ccc(O[C@H]4CCCC[C@@H]4N4CC(C5CC5)C4)c3F)C2=O)C(=O)N1 (some centres unmarked) [Compound 24]
Resp: 7.31

Req: Give pEC50 for the following compound: O=C1CCC(N2Cc3cc(O[C@H]4CCC[C@@H]4N4CC(C5CCC(F)(F)CC5)C4)ccc3C2=O)C(=O)N1 (some centres unmarked) [Compound 13]
Resp: 8.30

Req: Note down pEC50 recorded for O=C1CCC(N2Cc3cc(O[C@H]4CCCC[C@@H]4N4CC(C5CCCC(F)(F)C5)C4)ccc3C2=O)C(=O)N1 (some centres unmarked) [Compound 20]
Resp: 8.40

Req: Quote pEC50 reported for O=C1CCC(N2Cc3c(ccc(O[C@H]4CCCC[C@@H]4N4CC(C5CCC5)C4)c3F)C2=O)C(=O)N1 (some centres unmarked) [Compound 25] please.
Resp: 7.55

Req: Tell me its pEC50 given CCOC1CCC(C2CN([C@H]3CCCC[C@@H]3Oc3ccc4c(c3)CN(C3CCC(=O)NC3=O)C4=O)C2)CC1 (some centres unmarked) [Compound 19] as the entry.
Resp: 9.00

Req: For the compound O=C1CCC(N2Cc3cc(O[C@H]4CCCC[C@@H]4N4CC(C5CCCC5)C4)ccc3C2=O)C(=O)N1 (some centres unmarked) [Compound 6] , report pEC50.
Resp: 8.30

Req: Read off the recorded pEC50 for O=C1CCC(N2Cc3cc(O[C@H]4CCCC[C@@H]4N4CC(C5CCCCC5)C4)ccc3C2=O)C(=O)N1 (some centres unmarked) [Compound 1]
Resp: 8.52

Req: Give me measured pEC50, please, for this compound: CC(C)OC1CCC(C2CN([C@H]3CCCC[C@@H]3Oc3ccc4c(c3)CN(C3CCC(=O)NC3=O)C4=O)C2)CC1 (some centres unmarked) [Compound 16]
Resp: 8.70

Req: Query pEC50 for O=C1NC(=O)C2(N3Cc4cc(O[C@H]5CCCC[C@@H]5N5CC(C6CCC(F)(F)CC6)C5)ccc4C3=O)CC1C2 [Compound 15]
Resp: 5.21

Req: Check the records and state pEC50 for O=C1CCC(N2Cc3cc(O[C@H]4CCCC[C@@H]4N4CC(C5CCC(OC(F)F)CC5)C4)ccc3C2=O)C(=O)N1 (some centres unmarked) [Compound 21]
Resp: 9.00

Req: Please list pEC50 recorded for the compound O=C1CCC(N2Cc3cc(O[C@H]4CCCC[C@@H]4N4CC(C5CC5)C4)ccc3C2=O)C(=O)N1 (some centres unmarked) [Compound 3]
Resp: 8.05

Values were extracted from patent US20240287037A1.
